// data source = ChEMBL document CHEMBL3797138

# assay system: Cyclin-dependent kinase 9 (Homo sapiens, UniProt P50750)
# Sequence (P50750 whole entry): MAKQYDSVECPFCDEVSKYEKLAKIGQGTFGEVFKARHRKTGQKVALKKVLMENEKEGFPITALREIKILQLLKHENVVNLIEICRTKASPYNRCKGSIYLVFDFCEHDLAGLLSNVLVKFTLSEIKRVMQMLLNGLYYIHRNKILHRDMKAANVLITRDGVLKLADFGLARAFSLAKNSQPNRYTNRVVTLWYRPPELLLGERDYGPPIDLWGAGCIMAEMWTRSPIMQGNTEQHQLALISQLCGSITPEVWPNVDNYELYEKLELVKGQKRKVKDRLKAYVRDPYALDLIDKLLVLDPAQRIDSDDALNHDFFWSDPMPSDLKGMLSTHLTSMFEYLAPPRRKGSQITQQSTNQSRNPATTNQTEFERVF

>  <line notation>
C[C@H]1CN(c2cccc3nc(-c4nc(-c5cc(C(=O)N(C)C)ccn5)cnc4N)n(C)c23)CCN1

>  <IC50>
> 25 µM

$$$$

====

# assay system: Serine/threonine-protein kinase pim-2 (Homo sapiens)
# Sequence (Q9P1W9 whole entry): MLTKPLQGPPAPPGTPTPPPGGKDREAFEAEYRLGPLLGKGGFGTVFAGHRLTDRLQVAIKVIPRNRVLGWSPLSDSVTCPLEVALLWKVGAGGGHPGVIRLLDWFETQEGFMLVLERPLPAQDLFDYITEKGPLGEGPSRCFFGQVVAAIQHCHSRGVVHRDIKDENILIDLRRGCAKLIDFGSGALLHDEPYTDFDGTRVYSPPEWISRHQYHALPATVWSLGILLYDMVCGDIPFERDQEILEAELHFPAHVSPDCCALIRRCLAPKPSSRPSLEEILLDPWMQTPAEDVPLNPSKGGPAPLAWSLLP
pIC50: −log10 of the molar value.
quantity kind: pIC50

>  <line notation>
C[C@H]1CN(c2cccc3nc(-c4nc(-c5cc(C(=O)N(C)C)ccn5)cnc4N)n(C)c23)CCN1

>  <result value>
6.14

$$$$

====

Quick reference for solubility among some molecules
# assay comment: Solubility of the compound at pH 7.4 by high throughput assay
# conditions used: buffer
quantity kind: solubility (µM)

>  <line notation>
CN(C)C(=O)c1cccc(-c2cnc(N)c(-c3nc4cccc(N5CCNCC5)c4n3C)n2)c1

>  <result value>
254

$$$$
>  <line notation>
CN(C)C(=O)c1cccc(-c2cnc(N)c(-c3nc4cccc(N5CCNCC5)c4[nH]3)n2)c1

>  <result value>
70

$$$$
>  <line notation>
Nc1ncccc1-c1nc2ccccc2[nH]1

>  <result value>
300

$$$$
>  <line notation>
C[C@H]1CN(c2cccc3nc(-c4nc(-c5cc(C(=O)N(C)C)ccn5)cnc4N)n(C)c23)CCN1

>  <result value>
220

$$$$
>  <line notation>
CN(C)C(=O)c1cccc(-c2cnc(N)c(-c3nc4cccc(N5CCNCC5)c4[nH]3)c2)c1

>  <result value>
102

$$$$

====

# assay system: Receptor-type tyrosine-protein kinase FLT3 (Homo sapiens)
# Sequence (P36888 whole entry): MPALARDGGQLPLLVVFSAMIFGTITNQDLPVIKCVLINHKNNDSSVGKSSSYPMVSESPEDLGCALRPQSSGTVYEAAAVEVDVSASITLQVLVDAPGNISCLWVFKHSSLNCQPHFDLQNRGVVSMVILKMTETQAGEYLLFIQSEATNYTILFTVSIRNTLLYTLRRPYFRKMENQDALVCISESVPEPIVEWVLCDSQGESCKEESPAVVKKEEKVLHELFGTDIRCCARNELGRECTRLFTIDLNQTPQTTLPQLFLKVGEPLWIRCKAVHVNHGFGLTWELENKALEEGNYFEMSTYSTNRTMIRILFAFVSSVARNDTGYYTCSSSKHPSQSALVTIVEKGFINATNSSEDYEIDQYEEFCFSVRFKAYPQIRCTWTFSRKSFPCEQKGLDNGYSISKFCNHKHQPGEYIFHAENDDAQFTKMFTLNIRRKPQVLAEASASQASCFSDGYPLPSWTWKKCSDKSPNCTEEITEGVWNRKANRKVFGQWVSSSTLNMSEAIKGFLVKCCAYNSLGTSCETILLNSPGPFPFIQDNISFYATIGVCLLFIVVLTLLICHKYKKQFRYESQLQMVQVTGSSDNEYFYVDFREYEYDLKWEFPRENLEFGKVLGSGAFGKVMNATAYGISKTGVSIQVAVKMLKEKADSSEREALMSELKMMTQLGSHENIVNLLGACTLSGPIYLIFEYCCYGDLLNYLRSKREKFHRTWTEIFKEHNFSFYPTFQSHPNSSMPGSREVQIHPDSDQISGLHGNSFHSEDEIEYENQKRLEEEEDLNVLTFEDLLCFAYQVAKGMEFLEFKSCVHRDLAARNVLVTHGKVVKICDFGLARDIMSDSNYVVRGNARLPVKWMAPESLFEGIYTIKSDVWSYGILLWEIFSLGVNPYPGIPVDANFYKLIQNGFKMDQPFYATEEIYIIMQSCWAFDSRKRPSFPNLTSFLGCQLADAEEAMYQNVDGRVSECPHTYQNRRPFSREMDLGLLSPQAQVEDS
quantity kind: IC50 (nM)

>  <line notation>
C[C@H]1CN(c2cccc3nc(-c4nc(-c5cc(C(=O)N(C)C)ccn5)cnc4N)n(C)c23)CCN1

>  <assay system>
Receptor-type tyrosine-protein kinase FLT3 (Homo sapiens)

>  <result value>
280

$$$$
